STUDY_SYSTEM: T1, Human ADAM9 protein (ACROBiosystems, Cat. No. AD9-H52H7) (human, UniProt Q13443 29-697)
T1 construct: Bought protein; also called Human ADAM-His protein; human ADAM9 antigen; not shown: His tag
T1 sequence (looked up): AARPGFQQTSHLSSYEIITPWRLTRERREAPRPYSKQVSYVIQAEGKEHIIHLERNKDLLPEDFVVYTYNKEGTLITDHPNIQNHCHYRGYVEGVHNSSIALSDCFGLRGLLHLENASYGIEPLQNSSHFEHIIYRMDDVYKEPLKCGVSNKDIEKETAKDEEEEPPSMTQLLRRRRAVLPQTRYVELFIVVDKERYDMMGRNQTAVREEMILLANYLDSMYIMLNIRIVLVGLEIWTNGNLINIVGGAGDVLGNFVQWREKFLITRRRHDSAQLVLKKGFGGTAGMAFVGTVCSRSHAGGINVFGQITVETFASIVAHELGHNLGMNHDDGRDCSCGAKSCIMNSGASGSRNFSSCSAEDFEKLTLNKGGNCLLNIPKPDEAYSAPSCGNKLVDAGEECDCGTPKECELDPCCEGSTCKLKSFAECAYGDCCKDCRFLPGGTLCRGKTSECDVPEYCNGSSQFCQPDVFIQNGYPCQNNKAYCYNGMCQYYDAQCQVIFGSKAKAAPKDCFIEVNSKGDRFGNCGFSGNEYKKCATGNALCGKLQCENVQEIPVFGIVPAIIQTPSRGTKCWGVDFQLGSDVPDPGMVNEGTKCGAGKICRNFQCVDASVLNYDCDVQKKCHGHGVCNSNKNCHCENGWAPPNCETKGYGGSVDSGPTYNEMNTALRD
PROCEDURE_DETAILS: indirect ELISA, human ADAM9-His coated at 1 ug/mL
Each entry below carries its recorded Top (OD450).
ENDPOINT_NAME: Top (OD450)

>  <BINDER>
Ab4 (antibody, human IgG1, kappa, V domains shown, also called Ab04; Ab4-V (variable regions)) VH: QVQLQESGAEVKRPGSSVKVSCKASGFTFPLYWMNWVRQRPGRGLEWMGRIIPIFGHTKYNEKFKDRATMTRDKSSSTAYMELSSLTSDDSAVYYCARGGYYYYPREGFLDYWGQGTSVTVSS VL: DIVMTQSPSSLSVSPGERATINCRSSQSVDYSGDSYMNWYQQKPGQAPRLLIYAASDLESGVPDRFSGSGSGTDFTLNINGVEEEDAATYYCQQSREDPFTFGQGTKVEIKR

>  <ASSAY_RESULT>
3.06

$$$$
>  <BINDER>
Ab10 (antibody, human IgG1, kappa, V domains shown, also called Ab10-V (variable regions)) VH: QVQLQESGAELKRPGSSVKVSCKASGFTFPLYWMNWVRQRPGRGLEWMGRIIPIFGHTKYNEKFKDRATLTADESSSTAYMELSSLRSDDSAVYYCARGGYYYYPREGFLDYWGQGTSVTVSS VL: DIVMTQSPASLSVSPGERASISCRSSQSVDYSGDSYMNWYQQKPGQSPRLLIYAASDRESGVPARFSGSKSGTDFTLKINRVEEEDAGTYYCQQSREDPFTFGQGTRVEIKR

>  <ASSAY_RESULT>
3.4

$$$$
>  <BINDER>
Ab1 (antibody, human IgG1, kappa, V domains shown, also called Ab01; Ab1-V (variable regions)) VH: QVQLQESGAEVKRPGSSVKVSCKASGFTFPLYWMNWVRQRPGQGLEWMGRIIPIFGHTDYNEKFKDRATITRDESSNTAYMELSRLRSEDSAVYYCARGGYYYYPREGFLDYWGQGTSVTVSS VL: DIVMTQSPASLSVSPGERASISCRSSQSVDYSGDSYMNWYQQKPGQSPRLLIYAASDRESGVPDRFSGSGSGTDFTLKISRVEEEDAGTYYCQQSREDPFTFGQGTKVDIKR

>  <ASSAY_RESULT>
3.12

$$$$
